Target: CCK-1 receptor (Homo sapiens, UniProt P32238)
Sequence (P32238 1-428): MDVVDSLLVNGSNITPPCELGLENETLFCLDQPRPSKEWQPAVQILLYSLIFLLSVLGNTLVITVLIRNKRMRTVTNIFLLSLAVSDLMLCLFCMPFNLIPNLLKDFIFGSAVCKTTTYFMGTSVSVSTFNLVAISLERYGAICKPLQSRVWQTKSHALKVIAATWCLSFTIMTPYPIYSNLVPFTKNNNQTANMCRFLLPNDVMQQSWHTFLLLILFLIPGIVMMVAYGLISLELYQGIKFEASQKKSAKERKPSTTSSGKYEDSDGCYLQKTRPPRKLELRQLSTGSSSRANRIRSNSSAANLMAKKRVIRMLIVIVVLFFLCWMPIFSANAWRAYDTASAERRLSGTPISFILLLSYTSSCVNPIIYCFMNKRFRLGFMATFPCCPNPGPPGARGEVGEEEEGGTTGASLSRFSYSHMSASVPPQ
MEASUREMENT_LABEL: pKi
Answers are plain numbers, as −log10 of the molar value.

Cc1cccc(C(Cc2cc(-c3ccc(Cl)c(Cl)c3)n(-c3ccc(C(C)(C)C)cc3)n2)C(=O)O)c1 (stereo not shown) | 7.70
Cc1cccc(C(Cc2cc(-c3ccc4ccccc4c3)nn2C2CCCCC2)C(=O)O)c1 (stereo not shown) | 7.00

Hi! Can you tell me pKi for each of these compounds?
1. Cc1ccc(-c2cc(CC(C(=O)O)c3cccc4sccc34)nn2-c2ccc(Cl)c(Cl)c2)cc1 (stereo not shown)
2. Cc1ccc(-c2cc(CC(C(=O)O)c3cccc4ccccc34)nn2-c2ccc(C)cc2)cc1 (stereo not shown)
3. COc1ccc(-n2nc(C[C@@H](c3cccc(C)c3)c3nnn[nH]3)cc2-c2ccc(Cl)c(Cl)c2)cc1
4. O=C(O)/C(=C\c1cc(-c2ccc(Cl)c(Cl)c2)n(-c2cc(Cl)ccc2Cl)n1)c1cccc(Cl)c1
5. COc1ccc(-n2nc(CC(C(=O)O)c3coc4ccccc34)cc2-c2ccc(Cl)c(Cl)c2)cc1 (stereo not shown)
6. Cc1ccc(-n2nc(-c3cccc(N(C)C)c3)cc2CC(C(=O)O)c2cccc(C)c2)cc1 (stereo not shown)
7. Cc1ccc(-c2cc(CC(C(=O)O)c3cccc4ccccc34)nn2Cc2ccccc2)cc1 (stereo not shown)

Reply:
8.00
7.90
7.80
8.40
7.90
6.10
8.00

Hi! Can you tell me pKi for each of these compounds?
1. Cc1cccc(C(Cc2cc(-c3ccc4ccccc4c3)n(-c3ccc(C(F)(F)F)cn3)n2)C(=O)O)c1 (stereo not shown)
2. Cc1cccc(C(Cc2cc(-c3cccnc3)n(-c3ccc(Cl)cc3Cl)n2)C(=O)O)c1 (stereo not shown)
3. COc1ccc(-n2nc(CC(C(=O)O)c3cccc(OC)c3)cc2-c2ccc(Cl)c(Cl)c2)cc1 (stereo not shown)
4. COc1ccc(-n2nc(/C=C(/C(=O)O)c3ccc(Cl)c(Cl)c3)cc2-c2ccc(Cl)c(Cl)c2)cc1
5. Cc1cccc([C@@H](Cc2cc(-c3ccc4ccccc4c3)n(-c3ccccn3)n2)C(=O)O)c1
6. COc1ccc(-n2nc(C[C@H](CS(=O)(=O)c3ncn[nH]3)c3cccc(C)c3)cc2-c2ccc(Cl)c(Cl)c2)cc1
7. Cc1ccc(-c2cc(CC(C(=O)O)c3cccc(I)c3)nn2-c2ccc(Cl)c(Cl)c2)cc1 (stereo not shown)

Reply:
7.90
7.30
7.90
7.40
6.60
7.50
7.70

Hi! Can you tell me pKi for each of these compounds?
1. COc1ccc(-n2nc(/C=C(\C(=O)O)c3cccc(C)c3)cc2-c2ccc(Cl)c(Cl)c2)cc1
2. Cc1ccc(-c2cc(CC(C(=O)O)c3cccc(Cl)c3)nn2-c2ccc(Cl)c(Cl)c2)cc1 (stereo not shown)
3. COc1ccc(-n2nc(CC(C(=O)O)c3cn(C)c4ccccc34)cc2-c2ccc(C)cc2)cc1 (stereo not shown)

Reply:
8.00
7.90
7.30
